# TARGET_OR_SYSTEM: RORγ ligand binding domain (LBD) (Homo sapiens)
# TEST: TR-FRET Activity Assay (ligand sensing assay, RORγ-LBD / coactivator peptide interaction)
RECORDED_ENDPOINT: log10 IC50 (log10 of the value in nM)

- COC(c1c(C)c(C(=O)NC2CCOCC2)cn1-c1cc(C(C)(C)C)cc(C2(C)CC2)c1)C1CCCCC1 (stereo not drawn) [Example 14]: 3.30
- Cn1c(C(=O)N[C@H]2C[C@H](C(=O)O)C2)cc(CC2CCCCC2)c1-c1cc(C(C)(C)C)cc(C2(C)CC2)c1 [Example 19/1]: 2.90
- CCS(=O)(=O)c1cc(-c2cc(C(C)(C)C)cc(C(C)(C)C)c2)n(CC2CCCCC2)c1C [Example 325/1]: 2.40
- CC(C)(C)NS(=O)(=O)c1ccc(-c2cc(C(=O)NC34CCC(C(=O)O)(CC3)CC4)nn2CC2CCCCC2)c(Cl)c1Cl [112/2]: 2.90
- CCNC(=O)c1cc(CC2CCCCC2)n(-c2cc(C(C)(C)C)cc(C(C)(C)C)c2)n1 [Example 102/1]: 2.80
- CC(C)(C)c1cc(-c2cc(C(=O)N[C@H]3C[C@H](C(=O)O)C3)[nH]c2CC2CCCCC2)cc(C2(C)CC2)c1 [Example 17/1]: 2.90
- CC1(CNC(=O)c2nn(-c3cc(C(C)(C)C)nc(C(C)(C)C)c3)c(CC3CCCCC3)c2Cl)COC1 [Example 105]: 3.80
- CC(C)(C)NS(=O)(=O)c1ccc(-c2cc(C(=O)N[C@H]3C[C@H](C(=O)O)C3)nn2CC2CCCCC2)cc1C(F)(F)F [100/6]: 2.50
- CCS(=O)(=O)c1ccc(CNC(=O)c2cc(-c3ccc(S(=O)(=O)NC(C)(C)C)c(C(F)(F)F)c3)n(CC3CCCCC3)c2C)cc1 [Example 302]: 0.80
- Cc1c(C(=O)NCCC(C)(C)C(=O)O)c(Cl)n(-c2ccc(S(=O)(=O)NC(C)(C)C)c(C(F)(F)F)c2)c1CC1CCCCC1 [Example 9]: 2.90
- Cc1c(C(N)=O)cn(-c2cc(C(C)(C)C)cc(C(C)(C)C)c2)c1CC1CCCCC1 [Example 305]: 2.30
- Cc1c(C(=O)NC2CCOCC2)cc(-c2ccc(S(=O)(=O)NC(C)(C)C)c(C(F)(F)F)c2)n1CC1COC1 [302/3]: 4.20

---

Each record here notes measured pIC50 (FF).
# TARGET_OR_SYSTEM: RORγ (UniProt P51449)
# Construct: hRORg-LBD|aa259-518|NP_005051.2; hRORgt|aa1-497|NP_001001523 (RORg, t isoform, 497aa); mRORg-LBD|aa264-516|NP_035411
# Format: cell-based
# TEST_CONDITIONS: firefly (FF) luciferase, 293T cells, 16 h
RECORDED_ENDPOINT: pIC50 (FF)

* CC(C)(C)NS(=O)(=O)c1ccc(-c2cc(C(=O)NC3CCOCC3)nn2CC2CCCCC2)cc1C(F)(F)F | 7.1
* CC(C)(C)NS(=O)(=O)c1ccc(-c2cc(C(=O)N[C@H]3C[C@H](C(=O)O)C3)nn2CC2CCCCC2)cc1C(C)(C)C | 7.0
* CC(C)(C)c1cc(-n2nc(C(=O)NC3CCOCC3)c(Cl)c2CC2CCCCC2)cc(C(C)(C)C)c1 | 6.3

---

# TARGET_OR_SYSTEM: RORγ (UniProt P51449)
# Construct: hRORg-LBD|aa259-518|NP_005051.2; hRORgt|aa1-497|NP_001001523 (RORg, t isoform, 497aa); mRORg-LBD|aa264-516|NP_035411
# Format: cell-based
# TEST_CONDITIONS: firefly (FF) luciferase, 293T cells, 16 h
RECORDED_ENDPOINT: pIC50 (FF)

• Cn1c(C(N)=O)cc(-c2cc(C(C)(C)C)cc(C(C)(C)C)c2)c1CC1CCCCC1 = 6.1
• CC(C)(C)NS(=O)(=O)c1ccc(-n2nc(C(=O)NC3CCOCC3)nc2CC2CCCCC2)cc1C(C)(C)C = 6.2
• Cn1c(C(=O)N[C@H]2C[C@H](C(=O)O)C2)cc(-c2cc(C(C)(C)C)nc(C(C)(C)C)n2)c1CC1CCCCC1 = 6.8
• Cc1c(C(=O)NC2CCS(=O)(=O)CC2)nc(-c2ccc(S(=O)(=O)NC(C)(C)C)c3ccccc23)n1CC1CCCCC1 = 5.9
• CCS(=O)(=O)c1ccc(CNC(=O)c2cc(-c3ccc(S(=O)(=O)NC(C)(C)C)c(C(F)(F)F)c3)n(CC3CCCCC3)c2C)cc1 = 7.6
• Cn1c(C(=O)N[C@H]2C[C@H](C(=O)O)C2)cc(-c2ccc(S(=O)(=O)NC(C)(C)C)c3ccccc23)c1C(=O)C1CCCCC1 = 7.0
• Cn1c(C(=O)N2CC(C(C)(C)C(=O)O)C2)cc(-c2cc(C(C)(C)C)cc(C3(C)CC3)c2)c1CC1CCCCC1 = 7.2
• Cc1c(C(=O)NC2CCOCC2)cn(-c2ccc(S(=O)(=O)NC(C)(C)C)c(C(F)(F)F)c2)c1CC1CCCCC1 = 7.6
• Cn1c(C(=O)NCC(C)(C)C(=O)O)cc(-c2cc(C(C)(C)C)cc(C3(C)CC3)c2)c1CC1CCCCC1 = 7.4
• C[C@H](O)CNC(=O)c1nc(-c2cc(C(C)(C)C)c(O)c(C(C)(C)C)c2)n(CC2CCCCC2)n1 = 6.2

---

Here, each record is paired with measured pIC50 data.
# TARGET_OR_SYSTEM: RORγ ligand binding domain (LBD) (Homo sapiens, UniProt P51449)
# Sequence (P51449 269-508 limits assumed): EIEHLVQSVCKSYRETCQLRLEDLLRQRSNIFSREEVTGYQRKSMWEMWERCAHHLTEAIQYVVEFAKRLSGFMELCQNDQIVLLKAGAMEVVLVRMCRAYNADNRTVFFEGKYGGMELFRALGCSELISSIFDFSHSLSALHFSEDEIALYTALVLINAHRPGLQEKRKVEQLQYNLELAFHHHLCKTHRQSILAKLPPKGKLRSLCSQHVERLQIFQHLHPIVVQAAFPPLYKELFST
# TEST: TR-FRET Activity Assay (ligand sensing assay, RORγ-LBD / coactivator peptide interaction)
pIC50: −log10 of the molar value.
RECORDED_ENDPOINT: pIC50

• Cn1c(C(N)=O)cc(-c2cc(C(C)(C)C)cc(C(C)(C)C)c2)c1CC1CCCCC1 [Example 304] = 6.90
• CC(C)(C)c1cc(-c2nc(S(N)(=O)=O)nn2CC2CCCCC2)cc(C(C)(C)C)c1 [Example 309] = 5.50
• CC(C)(C)c1cc(-n2nc(C(=O)NCc3ccn[nH]3)c(Cl)c2CC2CCCCC2)cc(C(C)(C)C)c1 [103/8] = 6.10
• CC(C)(C)c1cc(-n2nc(C(=O)NS(C)(=O)=O)cc2CC2CCCCC2)cc(C(C)(C)C)c1 [Example 312/1] = 5.20
• C[C@H](O)CNC(=O)c1nc(-c2cc(C(C)(C)C)c(O)c(C(C)(C)C)c2)n(CC2CCCCC2)n1 [308/8] = 5.80
• Cn1c(C(=O)NCCC(C)(C)C(=O)O)cc(-c2cc(C(C)(C)C)cc(C3(C)CC3)c2)c1CC1CCCCC1 [8/10] = 6.10
• Cc1c(S(=O)(=O)CC2CC2)cc(-c2cc(C(C)(C)C)cc(C(C)(C)C)c2)n1CC1CCCCC1 [Example 325] = 6.40
• Cn1c(C(=O)N2CC(C(C)(C)C(=O)O)C2)cc(-c2cc(C(C)(C)C)cc(C3(C)CC3)c2)c1CC1CCCCC1 [8/15] = 5.70
• CC(C)(C)NS(=O)(=O)c1ccc(-c2cc(C(=O)NCCC(C)(C)C(=O)O)nn2CC2CCCCC2)cc1C(C)(C)C [100/4] = 5.70
• Cn1c(C(=O)N[C@H]2C[C@H](C(=O)O)C2)cc(-c2ccc(S(=O)(=O)NC(C)(C)C)c3ccccc23)c1CC1CCCCC1 [8/4] = 6.00
• CC(C)(C)c1cc(-n2nc(C(N)=O)c(Cl)c2CC2CCCCC2)cc(C(C)(C)C)c1 [Example 313] = 7.00
• C=CCCC(=O)c1cc(-c2cc(C(C)(C)C)cc(C(C)(C)C)c2)n(CC2CCCCC2)c1C [Example 322] = 5.80
• Cn1c(C(=O)NC2CCOCC2)cc(CC2CCCCC2)c1-c1cc(C(C)(C)C)cc(C2(C)CC2)c1 [19/2] = 6.30
• CC(C)(O)CNC(=O)c1nn(-c2cc(C(C)(C)C)cc(C(C)(C)C)c2)c(CC2CCCCC2)c1Cl [103/5] = 6.50
• Cc1c(C(=O)N[C@H]2C[C@H](C(=O)O)C2)cn(-c2cc(C(C)(C)C)cc(C3(C)CC3)c2)c1C(=O)C1CCCCC1 [Example 6] = 6.30
• C[C@H](NC(=O)c1cc(-c2cc(C(=O)N[C@H]3C[C@H](C(=O)O)C3)n(C)c2CC2CCCCC2)cc(C2(C)CC2)c1)C(F)(F)F [8/17] = 6.00
• CC(C)(C)NS(=O)(=O)c1ccc(-c2cc(C(=O)N[C@H]3C[C@H](C(=O)O)C3)nn2CC2CCCCC2)cc1C(C)(C)C [100/3] = 6.10
• Cc1c(C(=O)NCCC(C)(C)C(=O)O)c(C#N)n(-c2ccc(S(=O)(=O)NC(C)(C)C)c(C(F)(F)F)c2)c1CC1CCCCC1 [Example 10] = 5.80
• CC(C)(C)c1cc(-c2[nH]c(C(=O)NC3CCOCC3)cc2CC2CCCCC2)cc(C2(C)CC2)c1 [Example 12] = 6.00
• Cc1c(C(=O)N[C@H]2C[C@H](C(=O)O)C2)cn(-c2cc(C(C)(C)C)cc(C3(C)CC3)c2)c1C(=O)c1ccccc1 [Example 301] = 6.30
• Cc1c(C(=O)NC2CCOCC2)cc(-c2ccc(S(=O)(=O)NC(C)(C)C)c(C(F)(F)F)c2)n1C1CCCCC1 [302/6] = 6.00
• CC(C)(C)NS(=O)(=O)c1ccc(-c2nc(C(=O)NC3CCOCC3)nn2CC2CCCCC2)cc1C(C)(C)C [308/9] = 5.10
• Cn1c(C(=O)N[C@H]2C[C@H](C(=O)O)C2)cc(-c2cc(C(C)(C)C)cc(C3(C)CC3)c2)c1C(=O)C1CCCCC1 [Example 26] = 6.30
• Cc1c(C(=O)NCCC(C)(C)C(=O)O)cn(-c2ccc(S(=O)(=O)NC(C)(C)C)c(C(F)(F)F)c2)c1CC1CCCCC1 [Example 4] = 6.30
